The reported measurements were obtained from patent US20180148477A1.

molecular target: human α4β7 integrin on cells (human) (UniProt P13612); assay: RPMI8866 adhesion to MAdCAM-1
pIC50: −log10 of the molar value. Bridge positions count the residues as written; N and C are the ends. Square brackets hold non-standard residues; d marks the D form. 1Nal = N[C@@H](Cc1cccc2ccccc12)C(=O)O; 2Nal = N[C@@H](Cc1ccc2ccccc2c1)C(=O)O; NMeR = CN[C@@H](CCCNC(=N)N)C(=O)O; Pen = CC(C)(S)[C@H](N)C(=O)O; Dap = NC[C@H](N)C(=O)O
Reported pIC50 values for a set of binders
Measurement Kind: pIC50

Binder	Measurement Kind	Result
Ac-[Pen][NMeR]SDTL[Pen]WE[Dap]-NH2 (disulfide 1-7; SMILES CC(=O)N[C@@H]1C(=O)N(C)[C@@H](CCCNC(=N)N)C(=O)N[C@@H](CO)C(=O)N[C@@H](CC(=O)O)C(=O)N[C@@H]([C@@H](C)O)C(=O)N[C@@H](CC(C)C)C(=O)N[C@H](C(=O)N[C@@H](Cc2c[nH]c3ccccc23)C(=O)N[C@@H](CCC(=O)O)C(=O)N[C@@H](CN)C(N)=O)C(C)(C)SSC1(C)C) [SEQ ID NO: 59]	pIC50	< 5.00
Ac-[Pen][NMeR]SDTL[Pen][1Nal][dT][dK]-NH2 (disulfide 1-7 (inferred); also: homodimer via DIG) [SEQ ID NO: 116]	pIC50	< 7.30
Ac-[Pen][NMeR]SDTL[Pen][2Nal][dE][dK]-NH2 (disulfide 1-7; also: dimer via DIG) [SEQ ID NO: 29]	pIC50	< 8.00
Ac-[Pen][NMeR]SDTL[Pen][2Nal]E[dK]-NH2 (disulfide 1-7; SMILES CC(=O)N[C@@H]1C(=O)N(C)[C@@H](CCCNC(=N)N)C(=O)N[C@@H](CO)C(=O)N[C@@H](CC(=O)O)C(=O)N[C@@H]([C@@H](C)O)C(=O)N[C@@H](CC(C)C)C(=O)N[C@H](C(=O)N[C@@H](Cc2ccc3ccccc3c2)C(=O)N[C@@H](CCC(=O)O)C(=O)N[C@H](CCCCN)C(N)=O)C(C)(C)SSC1(C)C) [Peptide 210]	pIC50	7.40
Ac-[Pen][NMeR]SDTQ[Pen][2Nal][dE]-NH2 (disulfide 1-7; SMILES CC(=O)N[C@@H]1C(=O)N(C)[C@@H](CCCNC(=N)N)C(=O)N[C@@H](CO)C(=O)N[C@@H](CC(=O)O)C(=O)N[C@@H]([C@@H](C)O)C(=O)N[C@@H](CCC(N)=O)C(=O)N[C@H](C(=O)N[C@@H](Cc2ccc3ccccc3c2)C(=O)N[C@H](CCC(=O)O)C(N)=O)C(C)(C)SSC1(C)C) [SEQ ID NO: 163]	pIC50	< 6.00
